Data credit: patent US12509451B2

# measured.target: recombinant human CD38 Protein (Homo sapiens)
# Construct: purchased R&D System
# Sequence (P28907 1-300): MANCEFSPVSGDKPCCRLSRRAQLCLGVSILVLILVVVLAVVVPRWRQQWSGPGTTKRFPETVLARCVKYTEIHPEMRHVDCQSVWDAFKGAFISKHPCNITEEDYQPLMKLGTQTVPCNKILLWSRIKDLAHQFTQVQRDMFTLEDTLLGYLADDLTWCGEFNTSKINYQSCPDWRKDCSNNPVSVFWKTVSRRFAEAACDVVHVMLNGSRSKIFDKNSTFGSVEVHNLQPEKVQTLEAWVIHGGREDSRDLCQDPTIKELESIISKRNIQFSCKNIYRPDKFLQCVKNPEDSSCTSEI
# assay.overview: Fluorescence-based NAD+ cyclase activity assay with human recombinant CD38 protein (Assay 2)
# Format: biochemical
# assay.setup: read-out: Assay 2 Arithmetic mean IC50
measured.parameter: IC50

Answered cases to consult:
>>> test_value("CNC(=O)c1ccc(NC(=O)c2cccc(-n3ccnc3)n2)cn1")
"1 to 50 nM"
>>> test_value("COC(=O)c1ccc(NC(=O)c2cccc(-n3ccnc3)n2)cn1")
"51 to 1000 nM"

IC50 measured on Cc1cc(C(=O)Nc2cccnc2)nc(-n2ccnc2)c1 = 51 to 1000 nM

Short answer for O=C(Nc1ccc(F)nc1)c1cccc(-n2ccnc2)n1 : IC50 was 1000 to 10000 nM

Measured IC50 of COc1cc(C(=O)Nc2cccnc2)nc(-n2ccnc2)c1 : 51 to 1000 nM

The compound Cn1cncc1-c1cccc(C(=O)Nc2ccc(C(F)(F)F)nc2)n1 showed IC50 equal to 51 to 1000 nM

IC50 for NC(=O)c1ccc(NC(=O)c2cccc(-n3ccnc3)n2)cn1 is 1 to 50 nM
